Molecular target: Peroxisome proliferator-activated receptor (Homo sapiens) (UniProt P37231+Q07869+Q03181)
Assay: Agonist activity at PPAR in human myotubes assessed as CD36 mRNA expression at 30 uM after 96 hrs by qPCR analysis relative to control
Activity calls are given as the source filed them. The rule behind the calls is not given here.
// classify into active, inactive

[[record]]
smiles_input = "CCCCCCCCCCCCCCSCC(=O)OC[C@@H](O)CO"
label_class = "active"

[[record]]
smiles_input = "CCCCCCCCCCCCCCSCC(=O)O"
label_class = "active"

[[record]]
smiles_input = "CCCCCCC#CCCCCCCSCC(=O)O"
label_class = "active"

[[record]]
smiles_input = "CCCCCCC#CCCCCCCSCC(=O)OC[C@@H](O)COP(=O)([O-])OCC[N+](C)(C)C"
label_class = "active"

[[record]]
smiles_input = "CCCCCC/C=C\\CCCCCCSCC(=O)OC[C@H](COP(=O)([O-])OCC[N+](C)(C)C)OC(=O)CSCCCCCC/C=C\\CCCCCC"
label_class = "active"


Note: attention shifts to another entry.
Exercise: # outcome recorded in this test, key = `CCCCCCCCCCCCCCSCC(=O)OC[C@H](COP(=O)([O-])OCC[N+](C)(C)C)OC(=O)CSCCCCCCCCCCCCCC`
Solution: inactive

====

Experiment: Effect on fatty acid composition in human myotubes assessed as intracellular TTA level at 30 uM after 96 hrs
Format: functional
ASSAY METRIC: Activity (mol%)
Give bare numbers, in mol%.

Field: example entries. Status: answers known.
[[record]]
compound = "CCCCCCC#CCCCCCCSCC(=O)O"
units = "mol%"
measured_number = 0.32

[[record]]
compound = "CCCCCCCCCCCCCCSCC(=O)OC[C@@H](O)CO"
units = "mol%"
measured_number = 20.04

[[record]]
compound = "CCCCCC/C=C\\CCCCCCSCC(=O)OC[C@H](COP(=O)([O-])OCC[N+](C)(C)C)OC(=O)CSCCCCCC/C=C\\CCCCCC"
units = "mol%"
measured_number = 0.4


For each entry beneath this line, provide reported Activity.
1. CCCCCCC#CCCCCCCSCC(=O)OC[C@@H](O)COP(=O)([O-])OCC[N+](C)(C)C
2. CCCCCCCCCCCCCCSCC(=O)O [TETRADECYLTHIOACETIC ACID]
3. CCCCCCCCCCCCCCSCC(=O)OC[C@@H](O)COP(=O)([O-])OCC[N+](C)(C)C
4. CCCCCCCCCCCCCCSCC(=O)OC[C@H](COP(=O)([O-])OCC[N+](C)(C)C)OC(=O)CSCCCCCCCCCCCCCC [PHOSPHATIDYLCHOLINE]

Solution:
1: 1.02; 2: 31.81; 3: 19.51; 4: 5.9

====

Target: Peroxisome proliferator-activated receptor (Homo sapiens) (UniProt P37231+Q07869+Q03181)
Assay: Agonist activity at PPAR in human myotubes assessed as FABP3 mRNA expression at 30 uM after 96 hrs by qPCR analysis relative to control
The source made the active and inactive calls. No cut-off for these calls is given here.
// classify into active, inactive

[[record]]
smiles_input = "CCCCCCC#CCCCCCCSCC(=O)O"
label_class = "active"

[[record]]
smiles_input = "CCCCCCC#CCCCCCCSCC(=O)OC[C@@H](O)COP(=O)([O-])OCC[N+](C)(C)C"
label_class = "active"

[[record]]
smiles_input = "CCCCCCCCCCCCCCSCC(=O)OC[C@@H](O)CO"
label_class = "active"

[[record]]
smiles_input = "CCCCCC/C=C\\CCCCCCSCC(=O)OC[C@H](COP(=O)([O-])OCC[N+](C)(C)C)OC(=O)CSCCCCCC/C=C\\CCCCCC"
label_class = "active"

[[record]]
smiles_input = "CCCCCCCCCCCCCCSCC(=O)OC[C@H](COP(=O)([O-])OCC[N+](C)(C)C)OC(=O)CSCCCCCCCCCCCCCC"
label_class = "inactive"


Note: attention shifts to another entry.
Exercise: # outcome recorded in this test, key = `CCCCCCCCCCCCCCSCC(=O)O`
Solution: active
